Ref: patent US6130228A

Target: Acetylcholinesterase (AChE) (Rattus norvegicus)
Construct: The brain was removed and homogenised; from tissue; host or cells: rat brain (male Sprague Dawley), Triton X100 detergent supernatant of the EDTA-buffer pellet
Sequence (P37136 32-614): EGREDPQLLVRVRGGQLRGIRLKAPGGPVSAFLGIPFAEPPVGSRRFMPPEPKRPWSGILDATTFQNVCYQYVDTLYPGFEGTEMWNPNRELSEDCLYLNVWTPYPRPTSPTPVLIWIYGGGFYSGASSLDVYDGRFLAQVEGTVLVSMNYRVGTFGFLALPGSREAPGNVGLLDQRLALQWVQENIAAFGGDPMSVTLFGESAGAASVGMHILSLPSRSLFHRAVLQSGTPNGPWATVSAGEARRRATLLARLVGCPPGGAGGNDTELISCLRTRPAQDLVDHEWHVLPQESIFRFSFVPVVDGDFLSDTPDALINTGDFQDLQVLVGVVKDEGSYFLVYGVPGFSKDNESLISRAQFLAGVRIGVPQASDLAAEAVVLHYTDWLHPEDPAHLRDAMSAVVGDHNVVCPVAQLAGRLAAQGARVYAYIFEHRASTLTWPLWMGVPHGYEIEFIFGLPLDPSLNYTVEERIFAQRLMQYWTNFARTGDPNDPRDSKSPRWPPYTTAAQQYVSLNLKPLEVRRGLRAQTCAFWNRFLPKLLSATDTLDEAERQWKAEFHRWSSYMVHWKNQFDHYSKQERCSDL
Assay: biochemical
Assay type: biochemical, Male Rats (Sprague Dawley), brain
Details: Table 1; form BASE; ±SEM, n = 5; read-out: IC50 AChE
Description: (i) Enzyme Source for AChE 5 Male Rats (Sprague Dawley) weighing approx 250 g were killed by CO2 overdose and cervical dislocation. […] Change in absorbance was measured at 30 second intervals for 3 minutes at 324 mm. […] Inhibitor was calculated as a percentage of the control. A graph of Log of inhibitor conc. versus % control was plotted and IC5. values calculated by interpolation.

[
  {
    "molecule": "Nc1c2c(nc3ccccc13)-c1ccc(Cl)cc1CC2",
    "system_name": "Acetylcholinesterase (AChE) (Rattus norvegicus)",
    "IC50": "144 µM"
  },
  {
    "molecule": "Nc1c2c(nc3ccccc13)-c1ccccc1CCC2",
    "system_name": "Acetylcholinesterase (AChE) (Rattus norvegicus)",
    "IC50": "329 µM"
  },
  {
    "molecule": "COc1cccc2c1CCc1c-2nc2ccccc2c1N",
    "system_name": "Acetylcholinesterase (AChE) (Rattus norvegicus)",
    "IC50": "47.5 µM"
  },
  {
    "molecule": "Nc1c2c(nc3ccccc13)-c1ccccc1CC2 [Compound 3, 7 Amino-5,6-dihydro-benz-[c]-acridine]",
    "system_name": "Acetylcholinesterase (AChE) (Rattus norvegicus)",
    "IC50": "37.4 µM"
  },
  {
    "molecule": "COc1ccc2c(c1)CCCc1c-2nc2ccccc2c1N",
    "system_name": "Acetylcholinesterase (AChE) (Rattus norvegicus)",
    "IC50": "68.8 µM"
  },
  {
    "molecule": "Nc1c2c(nc3ccccc13)CCCc1ccccc1-2",
    "system_name": "Acetylcholinesterase (AChE) (Rattus norvegicus)",
    "IC50": "38.2 µM"
  }
]
